system under test: Endothelin-1 receptor (Homo sapiens)
Sequence (P25101 whole entry): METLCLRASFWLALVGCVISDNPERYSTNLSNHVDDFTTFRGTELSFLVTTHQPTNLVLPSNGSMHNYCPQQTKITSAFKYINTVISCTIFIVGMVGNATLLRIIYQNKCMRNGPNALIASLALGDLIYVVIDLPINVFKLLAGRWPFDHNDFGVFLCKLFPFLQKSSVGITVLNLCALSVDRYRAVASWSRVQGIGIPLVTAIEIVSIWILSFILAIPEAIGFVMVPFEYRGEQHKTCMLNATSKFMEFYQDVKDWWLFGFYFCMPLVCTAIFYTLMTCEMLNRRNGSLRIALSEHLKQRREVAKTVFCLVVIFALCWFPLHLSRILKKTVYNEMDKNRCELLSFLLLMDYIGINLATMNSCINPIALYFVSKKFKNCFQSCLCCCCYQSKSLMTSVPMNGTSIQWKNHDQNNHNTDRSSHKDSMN
pIC50: −log10 of the molar value.
quantity measured: pIC50

Examples with answers:
structure as smiles: Cc1noc(NS(=O)(=O)c2ccsc2C(=O)Nc2ccccc2C(=O)O)c1Br
pIC50: 6.67

structure as smiles: Cc1cccc(NC(=O)c2sccc2S(=O)(=O)Nc2onc(C)c2Br)c1
pIC50: 6.98

A. COc1ccc(NC(=O)c2sccc2S(=O)(=O)Nc2onc(C)c2Cl)c(OC)c1
B. CC(=O)c1cc2c(cc1NC(=O)c1sccc1S(=O)(=O)Nc1onc(C)c1C)OCO2
Given the listed records, identify the one among A and B with higher pIC50. Please indicate the selected item by its label. A

----------
test: Compound at dose 60 mg/kg was administered to rats and Serum half life was determined
Type: ADME, organism-based
Design: dose 60 mg/kg
experimental parameters: rat
quantity measured: half-life (h)
Your answer is read as h, so omit the unit and give the number.

Tell me half-life reported for Cc1noc(NS(=O)(=O)c2ccsc2C(=O)Nc2cc3c(cc2C#N)OCO3)c1Cl 2.5

----------
system under test: UniProt P25101
Sequence (P25101 whole entry): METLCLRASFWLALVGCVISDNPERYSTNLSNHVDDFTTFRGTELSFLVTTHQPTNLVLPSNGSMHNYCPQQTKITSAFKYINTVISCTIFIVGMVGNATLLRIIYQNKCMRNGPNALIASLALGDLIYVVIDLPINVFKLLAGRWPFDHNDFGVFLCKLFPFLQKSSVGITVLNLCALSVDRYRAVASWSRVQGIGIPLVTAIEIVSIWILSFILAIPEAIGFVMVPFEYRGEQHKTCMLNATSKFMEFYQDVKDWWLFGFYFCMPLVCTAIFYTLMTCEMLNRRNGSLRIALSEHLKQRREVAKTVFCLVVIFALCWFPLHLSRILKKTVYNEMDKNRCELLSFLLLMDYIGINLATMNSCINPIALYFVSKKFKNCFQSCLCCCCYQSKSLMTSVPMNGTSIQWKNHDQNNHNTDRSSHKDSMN
pIC50: −log10 of the molar value.
quantity measured: pIC50

Record excerpt, results attached:
compound: CCC(C)c1ccc(NC(=O)c2sccc2S(=O)(=O)Nc2onc(C)c2Br)cc1 (stereo not given)
system under test: UniProt P25101
quantity measured: pIC50
observed value: 7.27

compound: Cc1noc(NS(=O)(=O)c2ccsc2C(=O)Nc2ccc(O)nn2)c1Br
system under test: UniProt P25101
quantity measured: pIC50
observed value: 7.19

compound: CC(=O)c1cc2c(cc1NC(=O)c1sccc1S(=O)(=O)Nc1onc(C)c1Cl)OCO2
system under test: UniProt P25101
quantity measured: pIC50
observed value: 8.00

P. COc1cc(NC(=O)c2sccc2S(=O)(=O)Nc2onc(C)c2Cl)c(C(=O)O)cc1OC
Q. Cc1noc(NS(=O)(=O)c2ccsc2C(=O)Nc2ccccc2)c1Br
Select one. Lower pIC50: P or Q Select an item and report its label. P
